The measurements presented in this section are drawn from ChEMBL document CHEMBL1201862.

Tested on: HCC 2998
Assay: NCI tumour cell line growth inhibition, 48 h
Activity calls are given as the source filed them. Rule as the data show it: active = GI50 up to about 1.1 µM and inactive = higher.
Items are presented alongside their recorded GI50.

compound	GI50
[N-]=[N+]=NC1CC(n2ccc(N)nc2=O)OC1COP(=O)(O)OP(=O)(O)OP(=O)(O)O (stereo not given)	> 100 µM (inactive)
O=C(NCc1cccnc1)C(=O)NCc1cccnc1	> 100 µM (inactive)
C/C(=N\NC(=S)NC(CCC(=O)O)C(=O)O)c1cnccn1 (stereo not given)	> 100 µM (inactive)
COc1cc2oc3ccccc3c(=O)c2cc1CSc1ccccc1N	5.24 µM (inactive)
CCOC(=O)c1cn(CC)c(=O)n2c1nc1ccccc12	96.8 µM (inactive)
CCOC(=O)c1c(SCCN2CCCC2)n(-c2ccccc2)c(=S)n(-c2ccccc2)c1=O	1.87 µM (inactive)
O=C(/C=C/c1ccccc1)CC1OC(=O)c2ccccc21 (stereo not given)	> 100 µM (inactive)
CC/C(Cl)=N\OC(=O)Nc1ccc(C#N)cc1	16.4 µM (inactive)
CCCCCCc1cc2cc(C(=O)NCc3ccccc3)c(=N)oc2cc1O	> 100 µM (inactive)
COC1/C=C\OC2(C)Oc3c(C)c(O)c4c(O)c(c(/C=N\OCCCc5ccccc5)c(O)c4c3C2=O)NC(=O)/C(C)=C\C=C/C(C)C(O)C(C)C(O)C(C)C(OC(C)=O)C1C (stereo not given)	11.4 µM (inactive)

----------
System: SF-539
Assay: NCI tumour cell line growth inhibition, 48 h
Activity calls are given as the source filed them. Cut-off read from the data, not from the text of the source: active = GI50 up to about 1.1 µM and inactive = higher.
Possible outcomes: active, inactive

compound	qualitativeLabel
COc1ccccc1NC(=O)CC(=O)N1N=C(N2c3ccccc3Sc3ccccc32)CC1c1ccccc1 (stereo not drawn)	inactive
COCCN1C2=CCCCC2=Nc2c1nc(N)[nH]c2=O	inactive
O=C1c2ccccc2C(=O)c2c1ccc1c2OCO1	inactive
CSc1nc2c(c(N(C)C)n1)C(O)n1c(nc3ccccc31)S2 (stereo not drawn)	inactive
C[C@@]1(O)C[C@@H](N2C(=O)O[C@@H](c3ccccc3)[C@H]2c2ccccc2)[C@@H]1COCc1ccccc1	inactive
CC(Oc1ccc(OCC2CCCCC2)cc1)C(=O)OCC(=O)c1ccc(-c2ccccc2)cc1 (stereo not drawn)	inactive
O=C1C(Cl)=C(N(C(=O)c2ccccc2)C(=O)c2ccccc2)C(=O)c2ccccc21	inactive
c1ccc(SC2(Sc3ccccc3)CCCC2)cc1	inactive
CN1CC2CN(Cc3ccccc3)CCN2c2cccnc21 (stereo not drawn)	inactive
O=[N+]([O-])c1ccc2c(c1)n1c(N3CCCC3)[n+]3ccccc3c1c1c3ccccn3c(N3CCCC3)[n+]21.[O-][Cl+3]([O-])([O-])[O-].[O-][Cl+3]([O-])([O-])[O-]	inactive
CCn1c(=O)c2c3ccc(OC(C)=O)cc3[nH]c2c2ccc(OC(C)=O)cc21	inactive
O=C(O)c1ccc(Nc2cnc3ccc(C(F)(F)F)cc3n2)cc1	inactive
Br/C(=N\N=c1/nn[nH][nH]1)c1ccncc1	inactive
N#Cc1cc([N+](=O)[O-])ccc1NC(=O)C(=O)C(C(=O)/C=C/c1ccccc1)C1OC(=O)c2ccccc21 (stereo not drawn)	inactive
CCOC(=O)C1=C(C)N(NC(N)=O)C2(O)CCCC(=O)C12C (stereo not drawn)	inactive
C/C(=N/NC(=O)C[N+](C)(C)C)C(CN(C)C)C(=O)Nc1ccccc1 (stereo not drawn)	inactive
CCc1nc(N)nc(N)c1-c1ccc(Cl)c([N+](=O)[O-])c1	active
N#Cc1c(N)nc(Sc2ccccc2N)c(C#N)c1-c1ccc(Cl)cc1	inactive
Cc1c2cc[n+](CCN3CCCCC3)cc2c(C)c2c1[nH]c1ccc(O)cc12	inactive
COc1cccc(-c2cc(O)c3cc(OC)c(OC)cc3n2)c1	inactive
Cc1ccc2c(=O)cc(-c3cccc(F)c3)[nH]c2n1	active
CCCCCCc1cc2cc(C(=O)NCc3ccccc3)c(=N)oc2cc1O	inactive
c1ccc2c(c1)Cn1c-2nc2ccccc21	inactive
CCOC(=O)/C(C(=S)Nc1ccccc1)=C(/N)N1CCCC1	inactive
O=C1CC[N+]2=Cc3ccccc3O[B-]2(c2ccccc2)O1 (stereo not drawn)	inactive
CC(C)N1CSC(=S)N(Cc2ccccc2)C1	inactive
O=C1NC(=O)C2C(=O)NC(=O)C1C2(c1ccccc1)c1cc[nH]c1 (stereo not drawn)	inactive
Clc1ccc2c(c1)N(CCCN1CCCC13CCCCC3)c1ccccc1S2	inactive
COc1ccc(C(C#N)Cc2cc(OC)c(OC)c(OC)c2)cc1 (stereo not drawn)	inactive
CCCCC1C=Cn2c(=O)oc3c(OC(C)C)c(OC(C)C)c(O)c1c32 (stereo not drawn)	inactive
C=CCC12CCC(=O)C=C1CCC1(C2)OCCO1 (stereo not drawn)	inactive
CC(C)(C)C(=O)C1CC(=O)c2ccccc2C1=O (stereo not drawn)	inactive
COc1cccc2[s+]snc12	inactive
CC(=O)CC1CCC(=O)CCC(=O)OC(CC(C)=O)CCC(=O)CCC(=O)O1 (stereo not drawn)	inactive
CSc1cc(Cl)c(C)cc1S(=O)(=O)NC(=O)NNc1ccc(Cl)cc1	inactive
CC1(C)C2CCC1(C)[C@H](n1c(=O)n([C@@H]3CC4CCC3(C)C4(C)C)c(=O)n([C@@H]3CC4CCC3(C)C4(C)C)c1=O)C2	inactive
COc1ccc(/C=N\N2C(=O)Cc3ccccc32)cc1	inactive
CCOc1ccc(N2C(=O)NC3(c4ccccc4)N(C)C(=O)N(C)C23c2ccccc2)cc1 (stereo not drawn)	inactive
CCN1CCN(c2ccc(Nc3ccnc4ccc5nn(C)nc5c34)cc2)CC1	inactive
CCCC1N2CCCCC2[C@@H]2c3[nH]c4ccccc4c3CCN12 (stereo partly drawn)	inactive
Cc1ccc2c(O)cc(-c3ccc(C)s3)nc2n1	active
CC1=CCC[C@H]2[C@](C)(CC3=CC(=O)C(Sc4ccccc4)=CC3=O)[C@@H](C)CC[C@]12C	inactive
S=CN1CCCCC1	inactive

----------
Test system: DU-145
Experiment: NCI tumour cell line growth inhibition, 48 h
The source made the active and inactive calls. No stated cut-off is given here; in the data, active = GI50 up to about 1.1 µM and inactive = higher.
testReadout: GI50

compound	systemUnderTest	testReadout	observedValue
CCOC(=O)P(=O)(O)c1ccc(N(C)Cc2ccccc2)cc1	DU-145	GI50	> 100 µM (inactive)
Cc1nn(C(=O)c2ccc(Cl)cc2)c2c1C(c1ccco1)SC(=N)N2 (stereo not given)	DU-145	GI50	> 10 µM (inactive)
NC(=S)NS(=O)(=O)c1ccc(Cl)cc1	DU-145	GI50	> 100 µM (inactive)
O=C1C(Cl)=C(N(C(=O)c2ccccc2)C(=O)c2ccccc2)C(=O)c2ccccc21	DU-145	GI50	> 100 µM (inactive)
O=C1C(=O)N(c2cccc(C(F)(F)F)c2)C(=O)C(=O)C1c1nc2ccccc2s1	DU-145	GI50	> 100 µM (inactive)
O=C1NN(c2ccccc2)C(=O)C2C3c4ccccc4C(c4ccccc43)C12 (stereo not given)	DU-145	GI50	> 100 µM (inactive)
CCOC(=O)C(C)c1nc2ccc(C(F)(F)F)cc2[nH]c1=O (stereo not given)	DU-145	GI50	69.2 µM (inactive)
CCOC(=O)NN(C(=O)OCC)C(C(=O)C1=CCCCC1)N(NC(=O)OCC)C(=O)OCC	DU-145	GI50	> 100 µM (inactive)
COCCOC(=O)c1c(C)[n+]([O-])c2cc(Cl)c(Cl)cc2[n+]1[O-]	DU-145	GI50	11.5 µM (inactive)
CC1(c2sccc2Cl)CC(c2sccc2Cl)=C(C#N)C(=C(C#N)C#N)N1 (stereo not given)	DU-145	GI50	16 µM (inactive)

----------
Tested on: DLD-1
Assay: NCI tumour cell line growth inhibition, 48 h
Active and inactive are the calls of the source. Rule as the data show it: active = GI50 up to about 1.1 µM and inactive = higher.
Possible outcomes: class 1 for active, class 0 for inactive

compound	qualitativeLabel
CN1OC(CO)CC12C1CC3CC(C1)CC2C3 (stereo not given)	class 0
O=c1cccccc1NCCCCCCCCCNc1cccccc1=O	class 0
COc1cccc2[s+]snc12	class 0
COc1ccc(NC(=O)C(=O)C(C(=O)c2ccccc2)C2OC(=O)c3ccccc32)c([N+](=O)[O-])c1 (stereo not given)	class 0
CC1=C(C(=O)NCc2ccccc2)C(c2ccc([N+](=O)[O-])cc2)C(C(=O)NCc2ccccc2)=C(C)N1	class 0
C/C(=N/NC(=O)C[N+](C)(C)C)C(CN(C)C)C(=O)Nc1ccccc1 (stereo not given)	class 0
C/C=C/C=C/c1cc2cc3c(c(O)c2c(=O)[nH]1)C1(CC3)C(=O)c2c(O)c3c(c(O)c2C1=O)C(=O)C(OC)=CC3=O (stereo not given)	class 1
Cc1cccc2c(=O)cc(-c3ccccc3)[nH]c12	class 0
COC(=O)C12CCC(CC1=O)C2(C)C (stereo not given)	class 0
Cc1ccc(S(=O)(=O)N/N=C(\CCN2CCCC2)CC(c2ccccc2)c2c(O)c3ccccc3oc2=O)cc1 (stereo not given)	class 0
N#CC(C(=O)/C(=N\Nc1nc(S)nn1N)C(C#N)c1ccc(Cl)cc1)c1ccc(Cl)cc1 (stereo not given)	class 0
CN(Cc1cnc2nc(N)nc(N)c2n1)c1ccc(C(=O)NC(CCC(=O)O)C(=O)O)c2ccccc12 (stereo not given)	class 1
CCC(C)(C)C(=O)O[C@H]1C[C@@H](C)C=C2C=C[C@H](C)[C@H](CC[C@@H]3C[C@@H](O)CC(=O)O3)[C@H]21	class 0
COC(=O)/C(=N\Nc1nnc(C)n1N)C(C#N)c1ccc(Cl)cc1 (stereo not given)	class 0
CC(C)(C)C1=Cc2cc3cc(C(C)(C)C)[nH]c(=O)c3cc2S(=O)(=O)N1	class 0
N#CC1C2CCC3(CC2CCN1C(=O)c1ccccc1)OCCO3 (stereo not given)	class 0
COc1cccc2c1C(=O)c1c(O)c3c(c(O)c1C2=O)CC(O)(C(=O)CO)CC3OC1CC(N)C(I)C(C)O1 (stereo not given)	class 0
c1ccc(SC2(Sc3ccccc3)CCCC2)cc1	class 0
C=CCN1C(=O)C/C(=C2/CCC(=O)N2CC=C)C1=O	class 0
COc1cc2cc3c4cc(OC)c(OC)cc4cc[n+]3cc2cc1OC	class 0
CC(=O)NNc1nc(C)c(C(=O)NNC(=O)C(=O)Nc2ccc([N+](=O)[O-])cc2[N+](=O)[O-])s1	class 0
CNS(=O)(=O)NNS(=O)(=O)c1ccc(OC)cc1	class 0
CCOC(=O)CCC(NC(=O)c1ccc(NC(OC)c2nc3cc(C(F)(F)F)ccc3nc2-c2ccccc2)cc1)C(=O)OCC (stereo not given)	class 0
N#CC(C#N)c1ccc(C(=O)N2CCC[C@H]2CO)cc1	class 0
CCCC1N2CCCCC2[C@@H]2c3[nH]c4ccccc4c3CCN12 (stereo not given in full)	class 0
O=C(/C=C/c1ccc(-c2ccccc2)cc1)c1ccccc1	class 0
CCOP(=O)(OCC)OC(C#N)c1ccc(-c2ccccc2)cc1 (stereo not given)	class 0
C/C(=N\NC(=S)NC(CCC(=O)O)C(=O)O)c1cnccn1 (stereo not given)	class 0
COc1ccc(C(C#N)Cc2cc(OC)c(OC)c(OC)c2)cc1 (stereo not given)	class 0
O=C(CN(Cc1ccccc1)Cc1ccccc1)N1CCc2c([nH]c3ccccc23)C1c1cccnc1 (stereo not given)	class 0
